This collection of values is drawn from paper PMC11318023.

SYSTEM: CYP 1A2 (Homo sapiens)
Sequence (P05177 whole entry): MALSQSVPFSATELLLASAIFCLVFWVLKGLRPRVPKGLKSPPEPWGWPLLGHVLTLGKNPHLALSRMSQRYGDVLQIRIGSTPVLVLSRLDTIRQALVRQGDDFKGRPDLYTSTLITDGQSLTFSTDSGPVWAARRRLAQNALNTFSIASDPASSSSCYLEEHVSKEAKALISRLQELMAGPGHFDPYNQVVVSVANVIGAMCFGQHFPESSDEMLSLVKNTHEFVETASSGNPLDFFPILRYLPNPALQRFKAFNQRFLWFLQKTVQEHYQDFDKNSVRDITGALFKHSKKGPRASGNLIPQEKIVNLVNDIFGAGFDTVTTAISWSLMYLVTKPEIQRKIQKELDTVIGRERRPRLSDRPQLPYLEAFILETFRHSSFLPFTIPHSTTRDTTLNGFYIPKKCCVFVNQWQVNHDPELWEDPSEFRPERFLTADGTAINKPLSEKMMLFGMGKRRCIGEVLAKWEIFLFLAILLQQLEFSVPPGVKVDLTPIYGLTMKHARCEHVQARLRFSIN
PROTOCOL_DESCRIPTION: CYP450 inhibition in pooled human liver microsomes, CYP-specific probe substrates
Type: in vitro ADME
PROTOCOL_CONDITIONS: pooled HLM, NADPH, CYP-specific probe substrate
Listed compounds paired with reported IC50

Field: example entries. Status: answers known.
{"COMPOUND": "Cc1c(Cl)cnc2sc3c(NC4CC4)ncnc3c12 [Compound 15g]", "IC50": "< 100 nM"}
{"COMPOUND": "Cc1nc2sc3c(NC4CC4)ncnc3c2c(C)c1Cl.Cl [Compound 13l]", "IC50": "< 100 nM"}
{"COMPOUND": "Cc1nc2oc3c(NC4CC4(C)C)ncnc3c2c(C)c1Cl.Cl (centres unmarked) [Compound 14p]", "IC50": "320 nM"}
{"COMPOUND": "Cc1nc2sc3c(NC4CCC4)nncc3c2c(C)c1Cl.Cl [Compound 22j]", "IC50": "520 nM"}

Let us move to another entry and its IC50.
Consider the compound shown here: Cc1nc2oc3c(NC4CC4)ncnc3c2c(C)c1Cl.Cl [Compound 14o] What is its recorded IC50? < 100 nM
